Just for reference, patent US20250099420A1 is where these values come from.

- Experimental System: GPR139 (Homo sapiens)
- Test Name: GPR139 Agonist titration / agonist counterscreen assay (calcium detection, HEK-GPR139 cells)
- Type: cell-based
- Set-up: expressed in transfected cells; host or cells: HEK Aequorin cells, Maxcyte transient transfection
- Condition Info: GPR139 Agonist Activity
Output MET for records whose Efficiency Ligand is lower than 0.3, NOT MET for records at or above 0.3.

>  <Molecule>
C=C1N=C(NC2CCCCCC2)c2ccccc2N1 [SR-01000565308]

>  <Class Assignment>
NOT MET

$$$$
>  <Molecule>
C#CC1=C(CCCc2ccc(CC)cc2)CC(CCc2ccccc2CC)=C1 [SR-01000363853]

>  <Class Assignment>
MET

$$$$
>  <Molecule>
CCN1CCCc2cc(CCNC(=O)Nc3ccccc3)ccc21 [SR-01000923250]

>  <Class Assignment>
NOT MET

$$$$
>  <Molecule>
Cc1nn(CC(=O)NC2CCCc3ccccc32)c(=O)c2c1sc1ccccc12 (stereo not drawn) [SR-01000139982]

>  <Class Assignment>
MET

$$$$
>  <Molecule>
Cc1ccccc1SCC(=O)NNC(=O)C1CCCCC1 [SR-01000070173]

>  <Class Assignment>
NOT MET

$$$$
>  <Molecule>
CCCCC(O)CCNC(=O)C1CC(=O)N(CCc2ccc(C)cc2)C1 (stereo not drawn) [SR-01000145701]

>  <Class Assignment>
NOT MET

$$$$
>  <Molecule>
CN(C)CCOc1cc(NC(=O)C2COc3ccccc3C2)ccc1-c1cn[nH]c1.O=C(O)C(F)(F)F.O=C(O)C(F)(F)F (stereo not drawn) [SR-00000004123]

>  <Class Assignment>
MET

$$$$
>  <Molecule>
CSc1ccc(CCNC(=O)Cn2ncc3c(=O)oc4ccccc4c32)cc1 [SR-01000105999]

>  <Class Assignment>
NOT MET

$$$$
>  <Molecule>
Cc1c(Cl)c(C(F)(F)F)nn1CC(=O)NCc1ccc(Cl)cc1 [SR-01000429212]

>  <Class Assignment>
NOT MET

$$$$
>  <Molecule>
O=C(Cn1ccc2ccccc21)NC1CCN(Cc2ccccc2)CC1 [SR-01000925700]

>  <Class Assignment>
NOT MET

$$$$
>  <Molecule>
O=C(CNC(=O)c1ccc(Br)o1)NC1CCCc2ccccc21 (stereo not drawn) [SR-01000064101]

>  <Class Assignment>
NOT MET

$$$$
>  <Molecule>
Cc1ccc2c(c1)-c1c(cnn1CC(=O)Nc1ccc(F)cc1)CO2 [SR-01000136273]

>  <Class Assignment>
NOT MET

$$$$
>  <Molecule>
CN(Cc1ccc[nH]1)C(=O)CN1C(=O)NC2(CCc3ccccc3C2)C1=O (stereo not drawn) [SR-01000068179]

>  <Class Assignment>
NOT MET

$$$$
>  <Molecule>
COc1ccc(SCC(=O)NNC(=S)Nc2ccccc2)cc1 [SR-01000526835]

>  <Class Assignment>
NOT MET

$$$$
>  <Molecule>
O=C(NCCCn1ccnc1)c1cc2nc3c(c(C(F)(F)F)n2n1)CCc1ccccc1-3 [SR-01000313440]

>  <Class Assignment>
MET

$$$$
>  <Molecule>
Cl.Cl.Nc1[nH]ncc1-c1ccc(NC(=O)[C@H](N)Cc2cccc(F)c2)cc1 [SR-00000004378]

>  <Class Assignment>
NOT MET

$$$$
>  <Molecule>
O=C(CCOc1ccccc1)NCC1COc2ccccc2O1 (stereo not drawn) [SR-01000479007]

>  <Class Assignment>
NOT MET

$$$$

----------
- Experimental System: GPR139 (Homo sapiens, UniProt Q6DWJ6)
- Test Name: GPR139 Agonist titration / agonist counterscreen assay (calcium detection, HEK-GPR139 cells)
- Assay type: cell-based
- Design: expressed in transfected cells; host or cells: HEK Aequorin cells, Maxcyte transient transfection
- Condition Info: GPR139 Agonist Activity; based on logP
Entries whose Lipophilic Efficiency (logP) is below 4 take t; entries at or above 4 take f.

>  <Compound>
O=C(Cc1cccc2ccccc12)NCC(=O)NNC(=O)c1ccco1 [SR-01000069451]

>  <Class Assignment>
f

$$$$
>  <Compound>
Cc1cccc(NC(=S)NNC(=O)CSCc2cccc3ccccc23)c1 [SR-07000002775]

>  <Class Assignment>
t

$$$$
>  <Compound>
Cc1ccccc1CN1CCN(CC(=O)NCCc2ccc(Cl)cc2)C1=O [SR-01000093460]

>  <Class Assignment>
f

$$$$
>  <Compound>
COc1ccc(CCC(=O)Nc2ccc(/C(N)=N/O)cc2)cc1 [SR-01000103876]

>  <Class Assignment>
f

$$$$
>  <Compound>
O=C(CCc1nc2cccnc2n1Cc1cccs1)NCc1ccc2c(c1)OCO2 [SR-01000151666]

>  <Class Assignment>
f

$$$$
>  <Compound>
O=C(CCc1nc2ccccc2n1-c1ccccc1)NCCc1ccccc1 [SR-01000535824]

>  <Class Assignment>
t

$$$$
>  <Compound>
Cc1ccc(CNC(=O)COC(=O)c2ccc(Br)o2)cc1 [SR-01000042100]

>  <Class Assignment>
f

$$$$

----------
- Experimental System: UniProt Q6DWJ6
- Sequence (Q6DWJ6 1-353): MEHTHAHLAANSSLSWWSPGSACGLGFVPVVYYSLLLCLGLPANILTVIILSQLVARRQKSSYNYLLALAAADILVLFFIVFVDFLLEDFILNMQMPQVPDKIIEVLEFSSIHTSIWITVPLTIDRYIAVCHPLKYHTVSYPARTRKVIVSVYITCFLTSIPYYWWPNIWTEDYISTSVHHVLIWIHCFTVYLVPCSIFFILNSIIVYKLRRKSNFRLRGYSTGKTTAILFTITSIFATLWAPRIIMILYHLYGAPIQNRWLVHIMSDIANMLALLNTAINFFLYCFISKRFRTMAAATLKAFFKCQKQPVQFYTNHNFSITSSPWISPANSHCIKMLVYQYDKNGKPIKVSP
- Test Name: GPR139 Agonist titration / agonist counterscreen assay (calcium detection, HEK-GPR139 cells)
- Format: cell-based
- Set-up: expressed in transfected cells; host or cells: HEK Aequorin cells, Maxcyte transient transfection
- Condition Info: GPR139 Agonist Activity; fitted dose-response curve
Recorded Hill Slope, one value per entry.
Attribute Measured: Hill Slope

>  <Compound>
Cc1ccccc1C(=O)NNC(=O)C(C)Oc1ccc(Cl)cc1Cl (stereo not drawn) [SR-01000410694]

>  <Attribute Measured>
Hill Slope

>  <Reported Value>
1.03

$$$$
>  <Compound>
O=C(CCc1nc2cccnc2n1Cc1cccs1)NCc1ccc2c(c1)OCO2 [SR-01000151666]

>  <Attribute Measured>
Hill Slope

>  <Reported Value>
0.74

$$$$
>  <Compound>
CC(C)CN1CCNC(=O)C1CC(=O)NCCCn1ccc2ccccc21 (stereo not drawn) [SR-01000176150]

>  <Attribute Measured>
Hill Slope

>  <Reported Value>
0.64

$$$$
>  <Compound>
CC12C=CC3(CN(Cc4ccccc4)C(=O)C3C1C(=O)NCc1ccco1)O2 (stereo not drawn) [SR-01000582958]

>  <Attribute Measured>
Hill Slope

>  <Reported Value>
0.87

$$$$
>  <Compound>
COc1cccc(CNC(=O)Nc2ccc(-c3cn[nH]c3)cc2)c1 [SR-00000005253]

>  <Attribute Measured>
Hill Slope

>  <Reported Value>
0.64

$$$$
>  <Compound>
CC(NC(=O)Cn1cc(NC(=O)c2ccccc2F)cn1)c1ccccc1Cl (stereo not drawn) [SR-01000194602]

>  <Attribute Measured>
Hill Slope

>  <Reported Value>
0.71

$$$$
>  <Compound>
CC(C)CCNC(=O)C1C2C=CC3(CN(Cc4ccccc4Cl)C(=O)C13)O2 (stereo not drawn) [SR-01000104567]

>  <Attribute Measured>
Hill Slope

>  <Reported Value>
0.32

$$$$
>  <Compound>
O=C1N2CN(Cc3ccccc3)CN3C(=O)N4CN(Cc5ccccc5)CN1C4C23 (stereo not drawn) [SR-01000090996]

>  <Attribute Measured>
Hill Slope

>  <Reported Value>
1.21

$$$$
>  <Compound>
O=C(Cn1ccc2ccccc21)NCCn1cnc(-c2ccccc2)cc1=O [SR-01000926956]

>  <Attribute Measured>
Hill Slope

>  <Reported Value>
0.74

$$$$
>  <Compound>
Cc1cccc(Cc2cnc(NC(=O)CC(C)C)s2)c1 [SR-01000071221]

>  <Attribute Measured>
Hill Slope

>  <Reported Value>
1.13

$$$$
>  <Compound>
O=C(CCC(=O)c1ccco1)NNC(=O)CN1CCCc2ccccc21 [SR-01000068721]

>  <Attribute Measured>
Hill Slope

>  <Reported Value>
0.71

$$$$
>  <Compound>
CC1CC(C)CN(C(=O)C2C3C=CC4(CN(Cc5ccccc5Cl)C(=O)C24)O3)C1 (stereo not drawn) [SR-01000583192]

>  <Attribute Measured>
Hill Slope

>  <Reported Value>
0.51

$$$$
>  <Compound>
O=C(CN1CCN(Cc2ccc(F)cc2Cl)C1=O)NCc1ccccc1Cl [SR-01000125622]

>  <Attribute Measured>
Hill Slope

>  <Reported Value>
0.99

$$$$
>  <Compound>
O=C(NCC1Cc2cccc(-c3ccccn3)c2O1)c1ccc(-n2cccn2)cc1 (stereo not drawn) [SR-01000183606]

>  <Attribute Measured>
Hill Slope

>  <Reported Value>
0.82

$$$$
>  <Compound>
CCN(CCCNC(=O)CN1CCC(Cc2ccccc2C)C1=O)c1cccc(C)c1 (stereo not drawn) [SR-01000150393]

>  <Attribute Measured>
Hill Slope

>  <Reported Value>
1.18

$$$$
>  <Compound>
Cc1cc(C)c(/C=C2/NC(=N)NC2=O)c(C)c1 [SR-01000218376]

>  <Attribute Measured>
Hill Slope

>  <Reported Value>
0.92

$$$$
>  <Compound>
COc1cc(C(C)=O)ccc1OCC(=O)NC(C)CCc1ccccc1 (stereo not drawn) [SR-01000048295]

>  <Attribute Measured>
Hill Slope

>  <Reported Value>
0.88

$$$$
>  <Compound>
COc1ccc(OC)c(NC(=O)NNC(=O)C(C)Oc2ccc(Cl)cc2Cl)c1 (stereo not drawn) [SR-01000276878]

>  <Attribute Measured>
Hill Slope

>  <Reported Value>
0.75

$$$$
